src = patent US9193728B2

Tgt: human recombinant histamine H1 receptor (Homo sapiens, UniProt P35367)
Construct: expressed in transfected cells; host or cells: CHO-K1
Sequence (P35367 whole entry): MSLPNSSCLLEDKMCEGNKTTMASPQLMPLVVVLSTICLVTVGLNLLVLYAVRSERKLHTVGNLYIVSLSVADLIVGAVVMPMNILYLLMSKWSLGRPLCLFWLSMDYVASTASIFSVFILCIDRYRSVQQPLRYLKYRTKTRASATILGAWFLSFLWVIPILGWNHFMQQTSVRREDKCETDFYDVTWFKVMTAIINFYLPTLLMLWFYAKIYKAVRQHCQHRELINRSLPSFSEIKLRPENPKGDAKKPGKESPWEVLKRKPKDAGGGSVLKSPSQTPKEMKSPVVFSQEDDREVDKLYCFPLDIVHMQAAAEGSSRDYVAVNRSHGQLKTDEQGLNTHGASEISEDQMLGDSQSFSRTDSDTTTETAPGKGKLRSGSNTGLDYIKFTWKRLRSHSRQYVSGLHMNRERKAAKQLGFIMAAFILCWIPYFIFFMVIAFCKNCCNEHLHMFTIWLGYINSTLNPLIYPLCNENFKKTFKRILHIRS
Experimental Protocol: Histamine H1 radioligand binding ([3H]Pyrilamine)
Cond: compound at 0.1 μM; 1.2 nM [3H]Pyrilamine; read-out: Histamine Binding (0.1 μM) H1, percentage inhibition
Measured inhibition at 0.1 µM, listed per entry for reference.
Attribute Measured: inhibition at 0.1 µM (%)

• Cc1cc2c3c(c1)c1c(n3C[C@@](C)(c3ccncc3)O[C@H]2C)CCN(C)C1 = 25
• Cc1cc2c3c(c1)c1c(n3CC(c3ccc(F)cc3)C2)CCN(C)C1 (centres unmarked) = 49
• Cc1cc2c3c(c1)c1c(n3CC(C)(c3ccc(C)nc3)OC(C)C2)CCN(C)C1 (centres unmarked) = 0
• Cc1cc2c3c(c1)c1c(n3CC(C)(c3ccncc3)OC(C)C2)CCN(C)C1 (centres unmarked) = 37
• Cc1cc2c3c(c1)c1c(n3C[C@](C)(c3ccncc3)O[C@H]2C)CCN(C)C1 = 11

====

Tgt: rat adrenergic α1A receptor (Rattus norvegicus, UniProt P43140)
Construct: rat adrenergic α1A receptor obtained from Wistar Rat submaxillary glands; from tissue; host or cells: Wistar rat submaxillary glands
Sequence (P43140 1-466): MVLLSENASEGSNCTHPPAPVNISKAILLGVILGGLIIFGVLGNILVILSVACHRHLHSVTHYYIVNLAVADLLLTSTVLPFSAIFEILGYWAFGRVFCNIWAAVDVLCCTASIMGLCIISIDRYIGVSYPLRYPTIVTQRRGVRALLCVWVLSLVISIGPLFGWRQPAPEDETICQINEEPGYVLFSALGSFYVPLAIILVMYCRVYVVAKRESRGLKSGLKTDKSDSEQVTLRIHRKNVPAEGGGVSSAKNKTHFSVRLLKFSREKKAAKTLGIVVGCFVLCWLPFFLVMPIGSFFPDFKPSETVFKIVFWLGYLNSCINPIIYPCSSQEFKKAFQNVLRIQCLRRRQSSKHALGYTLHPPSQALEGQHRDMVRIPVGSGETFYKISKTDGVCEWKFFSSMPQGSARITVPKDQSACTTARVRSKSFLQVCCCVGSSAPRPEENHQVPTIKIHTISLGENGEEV
Experimental Protocol: Adrenergic α1A radioligand binding ([3H]Prazosin)
Cond: compound at 0.1 μM; read-out: Adrenergic (0.1 μM) a1A, percentage inhibition of ligand binding
Attribute Measured: inhibition at 0.1 µM (%)

• Cc1cc2c3c(c1)c1c(n3CC(C)(c3ccc(C)nc3)OC(C)C2)CCN(C)C1 (stereo not shown) = -5
• Cc1cc2c3c(c1)c1c(n3CC(C)(c3ccncc3)OC(C)C2)CCN(C)C1 (stereo not shown) = 11
• Cc1cc2c3c(c1)c1c(n3C[C@@](C)(c3ccncc3)O[C@H]2C)CCN(C)C1 = -3
• Cc1cc2c3c(c1)c1c(n3C[C@](C)(c3ccncc3)O[C@H]2C)CCN(C)C1 = -17

====

Tgt: human recombinant adrenergic α2C receptor (Homo sapiens, UniProt P18825)
Construct: expressed in transfected cells; host or cells: insect Sf9 cells
Sequence (P18825 whole entry): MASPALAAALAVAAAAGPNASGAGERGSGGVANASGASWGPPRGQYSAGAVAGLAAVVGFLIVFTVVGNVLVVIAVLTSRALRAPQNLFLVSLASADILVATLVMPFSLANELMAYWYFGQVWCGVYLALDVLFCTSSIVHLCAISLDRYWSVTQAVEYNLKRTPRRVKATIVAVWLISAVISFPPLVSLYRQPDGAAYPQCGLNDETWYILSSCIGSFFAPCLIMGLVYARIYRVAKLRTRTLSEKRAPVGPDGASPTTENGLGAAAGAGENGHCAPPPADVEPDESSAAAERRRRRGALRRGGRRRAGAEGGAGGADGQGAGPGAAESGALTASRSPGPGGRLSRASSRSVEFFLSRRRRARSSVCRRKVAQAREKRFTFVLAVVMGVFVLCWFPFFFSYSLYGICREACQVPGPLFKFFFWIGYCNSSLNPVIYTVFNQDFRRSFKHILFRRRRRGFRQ
Experimental Protocol: Adrenergic α2C radioligand binding ([3H]MK-912)
Cond: compound at 0.1 μM; read-out: Adrenergic (0.1 μM) a2C, percentage inhibition of ligand binding
Measured inhibition at 0.1 µM, listed per entry for reference.
Attribute Measured: inhibition at 0.1 µM (%)

• Cc1cc2c3c(c1)c1c(n3C[C@@](C)(c3ccncc3)O[C@H]2C)CCN(C)C1 [Compound 162] = 13
• Cc1cc2c3c(c1)c1c(n3CC(C)(c3ccncc3)OC(C)C2)CCN(C)C1 (stereo not shown) [Compound 165] = 20
• Cc1cc2c3c(c1)c1c(n3C[C@](C)(c3ccncc3)O[C@H]2C)CCN(C)C1 [Compound 163] = 12
• Cc1cc2c3c(c1)c1c(n3CC(C)(c3ccc(C)nc3)OC(C)C2)CCN(C)C1 (stereo not shown) [Compound 160] = 16
